test system: HepG2; assay: cytotoxicity call (relative viability < 0.9); conditions: 10 µM
About 3,300 (8.5%) of roughly 39,000 compounds were called active. Only a selection was taken, and actives are over-represented in it overall.
Entry note: the call must match one of yes (1) (active), no (0) (inactive)

Reference set (7 entries):
COc1cc2c(=O)c(-c3ccc4c(c3)OCO4)coc2c2c1OC(C)(C)C=C2
yes (1)
Cc1cn(CCC#N)c2ccccc12
no (0)
C[C@@H]1CN([C@@H](C)CO)C(=O)c2cc(NC(=O)Cn3cnnn3)ccc2O[C@H]1CN(C)Cc1ccc(C(=O)Nc2ccccc2N)cc1
no (0)
C[C@H]1CN([C@@H](C)CO)C(=O)c2cc(C3=CCCC3)cnc2O[C@H]1CN(C)C(=O)c1ccc2c(c1)OCO2
yes (1)
Cc1cn(CCN2CCN(c3ccccc3-c3cc(C#N)cc(C(=O)NCCCN4CCCC4)c3)CC2)c2ccccc12
yes (1)
C[C@@H]1CN([C@H](C)CO)C(=O)CCCn2cc(nn2)CO[C@H]1CN(C)C(=O)Nc1ccc(C(C)(C)C)cc1
no (0)
CO[C@@H]1CN(C)C(=O)c2ccc(NS(C)(=O)=O)cc2OC[C@@H](C)N(C(=O)c2ccc3c(c2)OCO3)C[C@@H]1C
no (0)

Moving on to the next compound.
For "C[C@@H]1CN([C@H](C)CO)C(=O)c2cccc(NC(=O)NC3CCCCC3)c2O[C@H]1CN(C)Cc1ccc(Cl)c(Cl)c1" , which call appears in the assay record? no (0)

---

test system: HepG2; experiment: cytotoxicity call (relative viability < 0.9); conditions: 10 µM
In all, about 39,000 compounds went through this assay and about 3,300 (8.5%) were called active. The sample as a whole holds a higher share of actives than the screen did.
Entry note: the call must match one of active, inactive

Reference set (5 entries):
C[C@@H]1CCCCO[C@H](CN(C)Cc2ccc3c(c2)OCO3)[C@H](C)CN([C@@H](C)CO)C(=O)c2cc(NC(=O)Nc3ccc(F)cc3)ccc2O1
active
C[C@@H]1CN([C@H](C)CO)C(=O)c2cc(NC(=O)Nc3ccccc3)ccc2O[C@H]1CN(C)C(=O)Nc1ccc(C(F)(F)F)cc1
inactive
C[C@@H]1CCCCO[C@@H](CN(C)Cc2ccc3c(c2)OCO3)[C@H](C)CN([C@H](C)CO)C(=O)c2cc(NC(=O)Nc3ccc(F)cc3)ccc2O1
active
C[C@H]1CCCCO[C@@H](CN(C)Cc2ccc3c(c2)OCO3)[C@@H](C)CN([C@@H](C)CO)C(=O)c2cc(NC(=O)Nc3ccc(F)cc3)ccc2O1
inactive
C[C@@H]1CCCCO[C@@H](CN(C)S(C)(=O)=O)[C@@H](C)CN([C@H](C)CO)C(=O)c2cc(NS(=O)(=O)c3cccs3)ccc2O1
inactive

Moving on to the next compound.
For "C[C@H](CO)N1C[C@H](C)[C@@H](CN(C)Cc2ccc3c(c2)OCO3)OCCCC[C@H](C)Oc2ccc(NC(=O)Nc3ccc(F)cc3)cc2C1=O" , which call appears in the assay record? active

---

tested on: HepG2; assay: cytotoxicity call (relative viability < 0.9); conditions: 10 µM
The whole screen tested about 39,000 compounds, of which about 3,300 (8.5%) were called active. The entries come from a sample that favours actives as a whole.
Entry note: the call must match one of t = active, f = inactive

C[C@H](CO)N1C[C@H](C)[C@@H](CN(C)C(=O)Nc2ccc(C(F)(F)F)cc2)Oc2c(NS(=O)(=O)c3ccc(Cl)cc3)cccc2C1=O
f
COc1ccc(S(=O)(=O)N(C)C[C@@H]2OCCCC[C@@H](C)Oc3ccc(NC(=O)c4ccccc4)cc3C(=O)N([C@H](C)CO)C[C@@H]2C)cc1
f
Cc1ccc(S(=O)(=O)N(C)C[C@H]2OCCCC[C@H](C)Oc3ccc(NC(=O)c4ccccc4)cc3C(=O)N([C@@H](C)CO)C[C@H]2C)cc1
f

For "C[C@@H]1CN([C@H](C)CO)C(=O)c2cc(NC(=O)c3ccccc3)ccc2O[C@@H](C)CCCCO[C@H]1CN(C)S(=O)(=O)c1ccccc1" , which call appears in the assay record? t

Record: "C[C@@H]1CN([C@@H](C)CO)C(=O)c2cccc(NS(=O)(=O)c3ccc(F)cc3)c2O[C@@H]1CN(C)C(=O)Nc1ccc(C(F)(F)F)cc1" t

Record: "COc1ccc(S(=O)(=O)N(C)C[C@H]2OCCCC[C@@H](C)Oc3ccc(NC(=O)c4ccccc4)cc3C(=O)N([C@@H](C)CO)C[C@H]2C)cc1" f

---

system: HepG2; test: cytotoxicity call (relative viability < 0.9); details: 10 µM
About 3,300 (8.5%) of roughly 39,000 compounds were called active. The entries come from a sample that favours actives as a whole.
PROPERTY LABEL: cytotoxicity call

Use the examples below as a reference point.
Cc1noc(C)c1S(=O)(=O)Nc1ccc2c(c1)C(=O)N([C@H](C)CO)C[C@H](C)[C@H](CN(C)C(=O)Nc1ccccc1)OCCCC[C@H](C)O2
inactive
COc1ccc2cc1Oc1ccc(cc1)CC1c3c(cc4c(c3Oc3cc5c(cc3OC)CCN(C)C5C2)OCO4)CCN1C (configuration not stated)
active
CC(C)CN1C[C@@H]2CCNCC[C@H]2S1(=O)=O
inactive
CCS(=O)(=O)N1C[C@]2(CCN(CC2)C(=O)Cc2ccccc2)c2c(n(c3cc(ccc23)OC)C)[C@@H]1CO
inactive
COc1ccc(S(=O)(=O)Nc2ccc3c(c2)C(=O)N([C@@H](C)CO)C[C@@H](C)[C@H](CN(C)C(=O)Nc2ccccc2)OCCCC[C@@H](C)O3)cc1
inactive
COCC(=O)Nc1ccc2c(c1)OC[C@@H](C)N(C(=O)Cc1ccccn1)C[C@H](C)[C@@H](OC)CN(C)C2=O
inactive

Which cytotoxicity call is reported for this compound? "COc1ccc2cc1Oc1ccc(cc1)C[C@H]1c3cc(c(OC)cc3CCN1C)Oc1c(OC)c(OC)cc3c1[C@H](C2)N(C)CC3" active

---

system: HepG2; assay: cytotoxicity call (relative viability < 0.9); details: 10 µM
The whole screen tested about 39,000 compounds, of which about 3,300 (8.5%) were called active. What follows is part of a selection rich in actives, with near analogues and random picks from the rest.
Entry note: the call must match one of true for active, false for inactive

Reference set (3 entries):
CNC(=O)c1c(O)c2ccccc2n(C)c1=O
true
C[C@@H]1CN([C@H](C)CO)S(=O)(=O)c2ccc(C#Cc3ccncc3)cc2O[C@H]1CN(C)S(=O)(=O)c1ccccc1
true
CC(CCC(=O)O)C1CCC2C3C(O)CC4CC(O)CCC4(C)C3CCC12C (stereo not drawn)
false

For "CCOC(=O)c1cccc([C@@H]2CC(=O)N(C(=O)OCc3ccccc3)[C@@H]2C(=O)Nc2cccc3cccnc23)c1" , which call appears in the assay record? false

Record: "C[C@@H]1CN([C@H](C)CO)C(=O)CCCn2cc(nn2)CO[C@H]1CN(C)S(=O)(=O)c1ccc2c(c1)OCCCO2" false

Record: "C[C@H](CO)N1C[C@H](C)[C@@H](CN(C)S(=O)(=O)c2ccc(F)cc2)Oc2ncc(Br)cc2C1=O" false

Record: "Cn1c(=O)c(C(=O)NCCO)c(O)c2ccccc21" false

Record: "CC(C)[C@@H](CC[C@@H](C)[C@H]1CC[C@H]2[C@@H]3[C@H](O)C[C@H]4C[C@@H](NCCCNCCCCN)CC[C@]4(C)[C@H]3CC[C@]12C)OS(=O)(=O)O" true

---

test system: HepG2; assay: cytotoxicity call (relative viability < 0.9); details: 10 µM
The campaign covered roughly 39,000 compounds. About 3,300 (8.5%) were called active. Many of the other results were omitted from the sample, so actives are more common in it than they were.
Entry note: the call must match one of yes for active, no for inactive

For "C[C@H]1CCCCO[C@@H](CN(C)C(=O)Nc2ccc(C(F)(F)F)cc2)[C@@H](C)CN([C@@H](C)CO)C(=O)c2cc(NS(=O)(=O)c3ccc(F)cc3)ccc2O1" , which call appears in the assay record? no

Record: "C[C@@H]1CCCCO[C@@H](CN(C)Cc2ccc(C(F)(F)F)cc2)[C@@H](C)CN([C@@H](C)CO)C(=O)c2cc(NS(=O)(=O)c3ccc(Cl)cc3)ccc2O1" no

Record: "C[C@H](CO)N1C[C@H](C)[C@@H](CN(C)S(=O)(=O)c2cn(C)cn2)Oc2cc(C#Cc3ccccc3)ccc2S1(=O)=O" no

Record: "Cc1noc(C)c1NC(=O)Nc1cccc2c1O[C@H](CN(C)C(=O)NC(C)C)[C@@H](C)CN([C@@H](C)CO)C2=O" no

Record: "CCOc1nc2c(N)ncnc2n1CC" no

Record: "C[C@@H]1CN([C@@H](C)CO)C(=O)c2cc(NS(=O)(=O)c3ccc(Cl)cc3)ccc2O[C@@H](C)CCCCO[C@H]1CN(C)Cc1ccc(C(F)(F)F)cc1" yes

Record: "COc1ccc(NC(=O)Nc2ccc3c(c2)C(=O)N([C@@H](C)CO)C[C@H](C)[C@H](CN(C)C(=O)CCC(F)(F)F)OCCCC[C@@H](C)O3)cc1" no

Record: "C[C@H](CO)N1C[C@H](C)[C@H](CN(C)C(=O)Nc2ccc(N3CCCCC3)cc2)OCc2cnnn2CCCC1=O" no
